- protocol.summary: Volume of distribution at steady state in Balb/c mouse at 3 mg/kg, iv
- Format: ADME, organism-based
- run.parameters: in vivo, read-out: Vdss
readout.kind: Vd (L/kg)
Answers are plain numbers, in L/kg.

Looking up `CNc1cc(Nc2cc(F)cc(F)c2OC)nn2c(C(=O)NC[C@](C)(O)CO)cnc12` , I found its Vd recorded as 6.3

====

- protocol.summary: Cmax in Balb/c mouse at 25 mg/kg, po
- Type: ADME, organism-based
- Set-up: dose 25 mg/kg, route oral
- run.parameters: in vivo
readout.kind: Cmax (nM)
One number for each entry, in nM.

Looking up `CNc1cc(Nc2cc(F)cc(F)c2OC)nn2c(C(=O)NC[C@](C)(O)CO)cnc12` , I found its Cmax recorded as 2800

====

- protocol.summary: AUClast in Balb/c mouse at 3 mg/kg, iv
- Assay type: ADME, organism-based
- Set-up: dose 3 mg/kg, route intravenous, time 0 - last
- run.parameters: in vivo
readout.kind: AUC(0-t) (µM·h)
Numbers only, in µM·h.

Looking up `CNc1cc(Nc2cc(F)cc(F)c2OC)nn2c(C(=O)NC[C@](C)(O)CO)cnc12` , I found its AUC(0-t) recorded as 2.3
